These entries and their values trace back to a melting point compilation (Tetko et al.; mined from patent text by program, amines drawn as free bases though some values may be those of a salt).

A collection of compounds and their measured melting point

| compound | melting point |
| --- | --- |
| O=C(CN1CC(S(=O)Cc2ccc(C(=O)O)cc2)C1=O)NCCCCCCc1ccc(Cl)cc1 (stereo unspecified) | 195 to 197 °C |
| Cc1cc2cc(NS(C)(=O)=O)cc(-c3cc(Cl)nc4ccccc34)c2n1CC(=O)O | 195 to 198 °C |
| COC(=O)c1ccc(Cc2cc3cc(Cl)ccc3n2S(=O)(=O)c2ccc(C(C)C)cc2)cc1F | 127 °C |
| Cn1ncc(N2CCCC2)c(-c2ccccc2C=O)c1=O | 140 to 141 °C |

Lookup: Could you please provide reported melting point for CC(C)(C)CC(=O)Nc1ccc2ncn3c(=O)c(C(=O)O)cnc3c2c1 ? Thanks!
Found: 304 to 306 °C

Lookup: Give me measured melting point, please, for this compound: CCCCc1nn2c(-c3ccccc3)c(C)nc2n1Cc1ccc(-c2ccccc2-c2nnn[nH]2)cc1
Found: > 108 °C
